Test system: HEPG2
assay_protocol: Euclidean distance of Cell Painting phenotypic profile (signed KS, 77 features) to DMSO centroid (dimensionless distance); 5 or 10 uM (library dependent); higher = stronger phenotypic change vs DMSO (phenoactivity)
details: 48 h
Structures can show the parent of a compound that is named as a salt.
Decide by Euclidean distance: equal to or exceeding 0.9 means True, less means False.

Inquiry: # check: Euclidean distance of `CN1CC[C@@H](NC(=O)Nc2ccc(C#N)cc2)C[C@@H]1c1nc2ccccc2[nH]1` is greater than or equal to 0.9
Reply text: True

Inquiry: # check: Euclidean distance of `c1ccc(-c2nn3c(c2-c2ccnc4cc(OCCN5CCOCC5)ccc24)CCC3)nc1` is greater than or equal to 0.9
Reply text: True

Inquiry: # check: Euclidean distance of CCC(=O)NS(=O)(=O)c1ccc(-c2c(-c3ccccc3)noc2C)cc1 [Parecoxib Sodium] is greater than or equal to 0.9
Reply text: False

Inquiry: # check: Euclidean distance of CC(C)(Sc1cc(C(C)(C)C)c(O)c(C(C)(C)C)c1)Sc1cc(C(C)(C)C)c(O)c(C(C)(C)C)c1 [Probucol] is greater than or equal to 0.9
Reply text: True

Inquiry: # check: Euclidean distance of CC1(C)C[C@@H]1C(=O)N/C(=C\CCCCSC[C@H](N)C(=O)O)C(=O)O [Cilastatin] is greater than or equal to 0.9
Reply text: False

Inquiry: # check: Euclidean distance of OCc1c[nH]c2ccccc12 [Indole-3-carbinol] is greater than or equal to 0.9
Reply text: False

Inquiry: # check: Euclidean distance of CCOc1ccc2nc3cc(N)ccc3c(N)c2c1 [Ethacridine lactate monohydrate] is greater than or equal to 0.9
Reply text: True

Inquiry: # check: Euclidean distance of NCCc1ccc(O)c(O)c1 [Dopamine HCl] is greater than or equal to 0.9
Reply text: False
